Target Or System: Muscarinic acetylcholine receptor M4 (Rattus norvegicus)
Sequence (P08485 whole entry): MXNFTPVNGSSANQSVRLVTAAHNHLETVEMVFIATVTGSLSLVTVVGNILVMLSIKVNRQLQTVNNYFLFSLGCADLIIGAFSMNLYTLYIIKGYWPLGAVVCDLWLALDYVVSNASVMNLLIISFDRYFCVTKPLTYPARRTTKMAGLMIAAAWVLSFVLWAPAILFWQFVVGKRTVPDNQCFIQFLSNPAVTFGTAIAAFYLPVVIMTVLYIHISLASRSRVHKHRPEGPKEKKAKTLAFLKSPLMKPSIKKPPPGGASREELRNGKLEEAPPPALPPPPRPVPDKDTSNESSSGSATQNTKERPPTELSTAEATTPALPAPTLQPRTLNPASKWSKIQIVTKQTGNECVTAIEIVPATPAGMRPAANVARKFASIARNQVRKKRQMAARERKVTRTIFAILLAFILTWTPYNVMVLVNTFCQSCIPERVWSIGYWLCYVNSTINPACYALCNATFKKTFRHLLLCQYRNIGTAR
Assay Comment: Positive allosteric modulation of rat M4 receptor assessed as increase in acetylcholine-induced response
Assay Readout: EC50 (nM)
Give the value in nM but do not write nM after it.

N#Cc1cnc2ccc(F)cc2c1N1CCC(C(=O)NCc2ccccc2)CC1    2560

Now for another entry.
Indicate the recorded EC50 value for this molecule: "Cc1ccc(OC2CCN(c3c(C#N)cnc4ccc(F)cc34)CC2)cn1"
437

* * *

Target Or System: Muscarinic acetylcholine receptor M4 (Homo sapiens) (UniProt P08173)
Sequence (whole entry): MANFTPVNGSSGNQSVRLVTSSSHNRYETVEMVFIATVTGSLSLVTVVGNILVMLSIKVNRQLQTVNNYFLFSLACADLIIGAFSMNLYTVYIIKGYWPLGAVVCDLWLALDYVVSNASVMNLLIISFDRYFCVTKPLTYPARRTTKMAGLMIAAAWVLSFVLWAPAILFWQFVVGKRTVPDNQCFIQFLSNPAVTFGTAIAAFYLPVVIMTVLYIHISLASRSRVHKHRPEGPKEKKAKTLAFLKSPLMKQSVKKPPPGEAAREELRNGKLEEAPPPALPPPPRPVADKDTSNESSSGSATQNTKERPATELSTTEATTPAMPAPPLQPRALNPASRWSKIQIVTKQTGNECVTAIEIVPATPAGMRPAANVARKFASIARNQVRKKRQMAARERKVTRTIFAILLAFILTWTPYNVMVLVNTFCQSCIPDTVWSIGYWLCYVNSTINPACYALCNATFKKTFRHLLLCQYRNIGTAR
Assay Comment: Positive allosteric modulation of human M4 receptor expressed in CHO cells co-expressing Gqi5 assessed as increase in acetylcholine-induced calcium mobilization relative to acetylcholine
Format: functional, cell-based
Assay Readout: Emax (%)
Give the value in % but do not write % after it.

Examples from the recorded data:
Cc1ccc(OC2CCN(c3c(C#N)cnc4ccc(Cl)cc34)CC2)cn1    72
N#Cc1cnc2ccc(F)cc2c1N1CCC(Oc2ccc(Cl)nc2)CC1    80
N#Cc1ccc(OC2CCN(c3c(C#N)cnc4ccc(F)cc34)CC2)cn1    49
Cc1ccc(OC2CCN(c3c(C#N)cnc4cc(F)c(F)cc34)CC2)cn1    92

Param request: Emax | system Muscarinic acetylcholine receptor M4 (Homo sapiens) (UniProt P08173) | item "COc1ccc2c(c1)CCN(C(=O)C1CCN(c3c(C#N)cnc4ccc(F)cc34)CC1)C2"
76

Param request: Emax | system Muscarinic acetylcholine receptor M4 (Homo sapiens) (UniProt P08173) | item "COc1ccc(CNC(=O)C2CCN(c3c(C#N)cnc4ccc(F)cc34)CC2)cc1"
60

Param request: Emax | system Muscarinic acetylcholine receptor M4 (Homo sapiens) (UniProt P08173) | item "N#Cc1cnc2ccc(F)cc2c1N1CCC(C(=O)Nc2ccccn2)CC1"
44

Param request: Emax | system Muscarinic acetylcholine receptor M4 (Homo sapiens) (UniProt P08173) | item "Cc1ccc(OC2CCN(c3c(C#N)cnc4c(C)cc(F)cc34)CC2)cn1"
82

Param request: Emax | system Muscarinic acetylcholine receptor M4 (Homo sapiens) (UniProt P08173) | item "Cc1ccc2ncc(C#N)c(N3CCC(Oc4ccc(C)nc4)CC3)c2c1"
67

Param request: Emax | system Muscarinic acetylcholine receptor M4 (Homo sapiens) (UniProt P08173) | item "N#Cc1cnc2ccc(F)cc2c1N1CCC(C(=O)Nc2cccnc2)CC1"
68

Param request: Emax | system Muscarinic acetylcholine receptor M4 (Homo sapiens) (UniProt P08173) | item "N#Cc1cnc2ccc(F)cc2c1N1CCC(Oc2cccnc2)CC1"
80

Param request: Emax | system Muscarinic acetylcholine receptor M4 (Homo sapiens) (UniProt P08173) | item "Cc1ccc(OC2CCN(c3ccnc4ccc(F)cc34)CC2)cn1"
62
